Can you tell me Ki for the items I'm about to list?
TESTED_SYSTEM: UniProt:P31645
PROCEDURE_SUMMARY: SERT binding
CONDITION_NOTES: read-out: Binding SERT Ki
Field: value (include unit after the number)

// CN1CC2CC2(c2ccc(Cl)cc2Cl)C1 (stereo not drawn) : Ki value = 500 nM

Sure, the documented Ki for CN1CC2CC2(c2ccc(F)c(Cl)c2)C1 (stereo not drawn) is 190 nM

For record Cc1ccc(C23CC2CN(C)C3)cc1F (stereo not drawn) the listed Ki is 830 nM

---

TESTED_SYSTEM: DAT (Homo sapiens (Human), UniProt Q01959)
PROCEDURE_SUMMARY: DAT binding
CONDITION_NOTES: read-out: Binding DAT Ki
REPORTED_METRIC: Ki (nM)
Just the number please, in nM, no unit attached.

The compound listed as CCN1CC2C[C@@]2(c2ccc(Cl)c(Cl)c2)C1 (some centres unmarked) has a reported Ki of 13

For reference, reported Ki for Cc1ccc(C23CC2CN(C)C3)cc1F (centres unmarked) stands at 270

compound CN1CC2C[C@@]2(c2ccc(Cl)c(Cl)c2)C1 (some centres unmarked) , Ki observed: 105

Note to self: Ki recorded for CCCCN1CC2C[C@@]2(c2ccc(Cl)c(Cl)c2)C1 (some centres unmarked) was 395

# compound Clc1ccc(C23CC2CN(C2CC2)C3)cc1Cl (centres unmarked) ; its Ki = 1700

So, CCN1CC2C[C@]2(c2ccc(Cl)c(Cl)c2)C1 (some centres unmarked) ? Its Ki was 46

Field Ki (entry CCCCN1CC2CC2(c2ccc(Cl)c(Cl)c2)C1 (centres unmarked) ) reads 240

CC(C)N1CC2C[C@@]2(c2ccc(Cl)c(Cl)c2)C1 (some centres unmarked) has a reported Ki of 25

Please fill in: Ki reported for CN1CC2CC2(c2ccc3ccccc3c2)C1 (centres unmarked) = 68

# Ki (compound: Fc1ccc(C23CNCC2C3)cc1Cl (centres unmarked) ) is 680

Data point: CCCN1CC2C[C@]2(c2ccc(Cl)c(Cl)c2)C1 (some centres unmarked) ; Ki = 170

Lab book: Ki of CCCCN1CC2C[C@]2(c2ccc(Cl)c(Cl)c2)C1 (some centres unmarked) noted as 215

Quick note, Ki for Cc1cc(C23CC2CN(C)C3)ccc1F (centres unmarked) landed at 2200

Summary for this compound, CN1CC2CC2(c2ccc(F)c(F)c2)C1 (centres unmarked) : Ki is 1900

# Ki of CN1CC2C[C@]2(c2ccc(Cl)c(Cl)c2)C1 (some centres unmarked) = 62

Documented Ki of CN1CC2CC2(c2ccc(F)c(Cl)c2)C1 (centres unmarked) : 640

Lab book: Ki of CC(C)N1CC2C[C@]2(c2ccc(Cl)c(Cl)c2)C1 (some centres unmarked) noted as 72

---

TESTED_SYSTEM: dopamine (DA) uptake, rat striatum synaptosomes (Rattus norvegicus (Rat), UniProt P23977)
Sequence (P23977 whole entry): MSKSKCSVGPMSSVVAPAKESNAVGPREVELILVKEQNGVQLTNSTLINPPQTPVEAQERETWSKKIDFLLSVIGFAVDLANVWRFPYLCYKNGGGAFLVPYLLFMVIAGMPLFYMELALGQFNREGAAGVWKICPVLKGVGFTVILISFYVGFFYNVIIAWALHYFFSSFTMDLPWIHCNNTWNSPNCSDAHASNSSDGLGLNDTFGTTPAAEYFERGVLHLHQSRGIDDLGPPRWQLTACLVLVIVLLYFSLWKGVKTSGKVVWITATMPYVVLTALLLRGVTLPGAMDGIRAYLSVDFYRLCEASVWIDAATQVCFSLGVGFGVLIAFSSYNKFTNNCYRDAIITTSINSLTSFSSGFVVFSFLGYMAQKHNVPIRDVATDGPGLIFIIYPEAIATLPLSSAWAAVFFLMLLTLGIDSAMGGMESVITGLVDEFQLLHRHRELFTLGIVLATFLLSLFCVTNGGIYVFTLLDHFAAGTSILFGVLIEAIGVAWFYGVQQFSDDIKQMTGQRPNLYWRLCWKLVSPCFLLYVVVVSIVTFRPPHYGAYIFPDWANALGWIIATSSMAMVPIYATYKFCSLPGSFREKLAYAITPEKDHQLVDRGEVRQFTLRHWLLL
PROCEDURE_SUMMARY: Dopamine (DA) uptake inhibition in rat striatum synaptosomes
Assay type: biochemical
REPORTED_METRIC: IC50 (nM)
Give just the numeric value; nM need not be written.

IC50 measured on CN1CC2C[C@@]2(c2cccc3ccccc23)C1 (some centres unmarked) = 903

Form field IC50, entry CN1CC2CC2(c2ccc(Cl)cc2Cl)C1 (centres unmarked) : 10000

IC50 reported for this compound CCOc1ccc2cc(C34CC3CN(C)C4)ccc2c1 (centres unmarked) : 360

Lab book: IC50 of CN1CC2C[C@]2(c2ccc(Cl)c(Cl)c2)C1 (some centres unmarked) noted as 130

So, Cc1cc(C23CC2CN(C)C3)ccc1F (centres unmarked) ? Its IC50 was 370

Briefly, IC50 measured for c1ccc2cc([C@@]34CNCC3C4)ccc2c1 (some centres unmarked) : 98

IC50 recorded for this compound, CN1CC2CC2(c2cccc3ccccc23)C1 (centres unmarked) , is 512

Entry CN1CC2C[C@@]2(c2ccc(F)c(Cl)c2)C1 (some centres unmarked) ; IC50 = 494
